system: A375 (human malignant melanoma cells); experiment: Antitumor screening in vitro, MTT assay, A375; assay type: cell-based; conditions: 48 hours
Parameter: IC50 (µM)
Answers are plain numbers, in µM.

Molecule: Clc1ccccc1-c1nccc2c3ccccc3n(CCCCCCn3c4ccccc4c4ccnc(-c5ccccc5Cl)c43)c12
IC50 / µM: 23.2
--
Molecule: c1ccc2c(c1)c1ccncc1n2CCCCCCCn1c2ccccc2c2ccncc21
IC50 / µM: 286
--
Molecule: COc1cc(-c2nccc3c4ccccc4n(CCCCCCn4c5ccccc5c5ccnc(-c6cc(OC)c(OC)c(OC)c6)c54)c23)cc(OC)c1OC
IC50 / µM: 5.9

# batch: return IC50 for each of the 4 molecules below
1. CCOC(=O)c1cc2c3ccccc3n(CCCCCn3c4ccccc4c4cc(C(=O)OCC)nc(-c5cccnc5)c43)c2c(-c2cccnc2)n1
2. CCOC(=O)c1cc2c3ccccc3n(CCCCCCCCCn3c4ccccc4c4cc(C(=O)OCC)nc(-c5cc(OC)c(OC)c(OC)c5)c43)c2c(-c2cc(OC)c(OC)c(OC)c2)n1
3. COc1cc(-c2nccc3c4ccccc4n(CCCCCCCn4c5ccccc5c5ccnc(-c6cc(OC)c(OC)c(OC)c6)c54)c23)cc(OC)c1OC
4. N.N.[Cl][Pt][Cl] [Cisplatin, reference compound]

Output:
1. 13
2. 218
3. 4
4. 39.2

Input: Which value of IC50 has been reported for "O=[N+]([O-])c1ccc(Cl)c(-c2nccc3c4ccccc4n(CCCCCCn4c5ccccc5c5ccnc(-c6cc([N+](=O)[O-])ccc6Cl)c54)c23)c1" in the records?
Output: 7

* * *

tested on: KB (human oral epidermoid carcinoma cells); test: Antitumor screening in vitro, MTT assay, KB; assay type: cell-based; conditions: Homo sapiens, 48 hours
Task for the reader: assign each of the following compounds its reported IC50.

Would you please look over these solved cases?
Compound: Cc1nccc2c3ccccc3n(CCCCCCCCn3c4ccccc4c4ccnc(C)c43)c12 [Compound 11]
Subject Of Test: KB (human oral epidermoid carcinoma cells)
IC50: > 300 µM

Compound: Cc1nccc2c3cc(Br)ccc3n(CCCCCCn3c4ccc(Br)cc4c4ccnc(C)c43)c12 [Compound 22]
Subject Of Test: KB (human oral epidermoid carcinoma cells)
IC50: > 300 µM

Compound: c1ccc2c(c1)c1ccnc(-c3ccsc3)c1n2CCCCCCn1c2ccccc2c2ccnc(-c3ccsc3)c21 [Compound 33]
Subject Of Test: KB (human oral epidermoid carcinoma cells)
IC50: > 300 µM

# batch: return IC50 for each of the 5 compounds below
1. CC(C)c1nccc2c3ccccc3n(CCCCCCCCCCn3c4ccccc4c4ccnc(C(C)C)c43)c12 [Compound 40]
2. Cc1nccc2c3ccccc3n(CCCCCCn3c4ccccc4c4ccnc(C)c43)c12 [Compound 9]
3. Cc1nccc2c3cc(Br)ccc3n(CCCCC(C)n3c4ccc(Br)cc4c4ccnc(C)c43)c12 (stereo not shown) [Compound 21]
4. Clc1ccccc1-c1nccc2c3ccccc3n(CCCCCCCn3c4ccccc4c4ccnc(-c5ccccc5Cl)c43)c12 [Compound 36]
5. Cc1nccc2c3ccc(OC(C)C)cc3n(CCCCCCn3c4cc(OC(C)C)ccc4c4ccnc(C)c43)c12 [Compound 25]

Output:
1. > 300 µM
2. > 300 µM
3. > 300 µM
4. > 300 µM
5. 19.8 µM

* * *

test system: Kunming mice; assay: Acute toxicity test in mice (LD50); conditions: Kunming mice, single intraperitoneal administration, observed two weeks, Bliss method
Task for the reader: assign each of the following compounds its reported acute toxicity LD50.
Answers are plain numbers, in mg/kg.

# batch: return acute toxicity LD50 for each of the 2 compounds below
1. COc1cc(-c2nccc3c4ccccc4n(CCCCCCn4c5ccccc5c5ccnc(-c6cc(OC)c(OC)c(OC)c6)c54)c23)cc(OC)c1OC
2. CCOC(=O)c1cc2c3ccccc3n(CCCCCCn3c4ccccc4c4cc(C(=O)OCC)nc(-c5cc(OC)c(OC)c(OC)c5)c43)c2c(-c2cc(OC)c(OC)c(OC)c2)n1

Output:
200
300
